target: human Retinoid X Receptor beta (RXRb), RXRB (gene 6257); experiment: ATG_RXRb_TRANS: Attagene TRANS-FACTORIAL HepG2 Assay for human Retinoid X Receptor beta (RXRb) (AID 2283013)
Records with an inconclusive call do not appear. Calls of active or inactive are those of the source. How the source made its calls: active means hit-call score of the fitted dose curve at least 0.9, where 1 is the maximum; inconclusive means response in the unintended direction; inactive means score below 0.9.
Outcomes: active, inactive

>  <Sample smiles>
O=C(O)C(F)(F)OC(F)(F)C(F)(F)OC(F)(F)C(F)(F)OC(F)(F)F

>  <Target system>
human Retinoid X Receptor beta (RXRb), RXRB (gene 6257)

>  <Group>
active

$$$$
>  <Sample smiles>
OCCCc1cccnc1

>  <Target system>
human Retinoid X Receptor beta (RXRb), RXRB (gene 6257)

>  <Group>
inactive

$$$$
>  <Sample smiles>
CCn1c2ccccc2c2ccccc21

>  <Target system>
human Retinoid X Receptor beta (RXRb), RXRB (gene 6257)

>  <Group>
active

$$$$
>  <Sample smiles>
CC(C)OC=O

>  <Target system>
human Retinoid X Receptor beta (RXRb), RXRB (gene 6257)

>  <Group>
inactive

$$$$
>  <Sample smiles>
CSc1ccc(O)cc1C

>  <Target system>
human Retinoid X Receptor beta (RXRb), RXRB (gene 6257)

>  <Group>
inactive

$$$$
>  <Sample smiles>
O=C(c1ccccc1)c1ccc(O)cc1O

>  <Target system>
human Retinoid X Receptor beta (RXRb), RXRB (gene 6257)

>  <Group>
active

$$$$
>  <Sample smiles>
NCC(F)(F)C(F)(F)C(F)(F)C(F)(F)C(F)(F)C(F)(F)C(F)(F)C(F)(F)F

>  <Target system>
human Retinoid X Receptor beta (RXRb), RXRB (gene 6257)

>  <Group>
inactive

$$$$
>  <Sample smiles>
O=S(=O)(Cl)C(F)(F)C(F)(F)C(F)(F)C(F)(F)C(F)(F)C(F)(F)C(F)(F)C(F)(F)F

>  <Target system>
human Retinoid X Receptor beta (RXRb), RXRB (gene 6257)

>  <Group>
inactive

$$$$
>  <Sample smiles>
C=CC(=O)OCC(F)(F)C(F)(F)C(F)(F)C(F)(F)C(F)(F)C(F)(F)C(F)(F)C(F)F

>  <Target system>
human Retinoid X Receptor beta (RXRb), RXRB (gene 6257)

>  <Group>
inactive

$$$$
>  <Sample smiles>
CCOC(C=C(C)CCC=C(C)C)OCC

>  <Target system>
human Retinoid X Receptor beta (RXRb), RXRB (gene 6257)

>  <Group>
inactive

$$$$
>  <Sample smiles>
NC(=O)C(F)(F)C(F)(F)C(F)(F)C(F)F

>  <Target system>
human Retinoid X Receptor beta (RXRb), RXRB (gene 6257)

>  <Group>
inactive

$$$$
>  <Sample smiles>
Cc1ccc([N+](=O)[O-])c(C)c1

>  <Target system>
human Retinoid X Receptor beta (RXRb), RXRB (gene 6257)

>  <Group>
inactive

$$$$
>  <Sample smiles>
CCCCCCCCCc1ccc(OCCO)cc1

>  <Target system>
human Retinoid X Receptor beta (RXRb), RXRB (gene 6257)

>  <Group>
inactive

$$$$
